Collected Inhibition (%) of tonic extension values appear next to each entry.
- System: maximal electroshock seizures in mice
- protocol_notes: Anti-electroshock convulsion activity (maximal electroshock seizures, method of Goodman et al.)
- Format: in vivo
- experimental_context: 80 mg/kg p.o., 2 hours after oral administration, n = 8, 25 mA, 0.25 sec.

Example results:
>>> df
                                   compound  test_value
0  O=C(Nc1cc(C(F)(F)F)cc(C(F)(F)F)c1)[C@H]1CCCC[C@H]1C(=O)O (relative stereo) [Compound A]        100%
1  O=C(O)C1=C(C(=O)Nc2cc(C(F)(F)F)cc(C(F)(F)F)c2)CCCC1 [Compound D]          0%
2  O=C1C2CC=CCC2C(=O)N1c1cc(C(F)(F)F)cc(C(F)(F)F)c1 (stereo not shown) [Compound H]         50%

Lab note: O=C1C2CCCCC2C(=O)N1c1cc(C(F)(F)F)cc(C(F)(F)F)c1 (stereo not shown) [Compound G] gave Inhibition (%) of tonic extension of 100%

----------
- System: maximal electroshock seizures in mice
- protocol_notes: Anti-electroshock convulsion activity (maximal electroshock seizures, method of Goodman et al.)
- Format: in vivo
- experimental_context: 80 mg/kg p.o., 2 hours after oral administration, n = 8, 25 mA, 0.25 sec.
Collected Inhibition (%) of tonic extension values appear next to each entry.
Field: value (include unit after the number)

>>> df
                                   molecule  test_value
0  O=C(Nc1cc(C(F)(F)F)cc(C(F)(F)F)c1)[C@H]1CC=CC[C@H]1C(=O)O (relative stereo)        100%

Lab note: O=C(O)[C@@H]1CCCC[C@H]1C(=O)Nc1cc(C(F)(F)F)cc(C(F)(F)F)c1 (relative stereo) gave Inhibition (%) of tonic extension of 0%

Lab note: CC1CC[C@H](C(=O)O)[C@H](C(=O)Nc2cc(C(F)(F)F)cc(C(F)(F)F)c2)C1 (relative stereo) gave Inhibition (%) of tonic extension of 100%

Lab note: O=C(Nc1cc(C(F)(F)F)cc(C(F)(F)F)c1)[C@@H]1[C@@H]2CC[C@@H](C2)[C@@H]1C(=O)O (relative stereo) gave Inhibition (%) of tonic extension of 0%

----------
- Tested on: maximal electroshock seizures in mice
- protocol_notes: Anti-electroshock convulsion activity (maximal electroshock seizures, method of Goodman et al.)
- Type: in vivo
- experimental_context: 40 mg/kg p.o., 2 hours after oral administration, n = 8, 25 mA, 0.25 sec.
metric_name: Inhibition (%) of tonic extension
Report only the number, with the unit % understood.

Example results:
>>> print(df.to_string())
                                   compound                        metric_name  test_value
0  O=C1C2CCCCC2C(=O)N1c1cc(C(F)(F)F)cc(C(F)(F)F)c1 (stereo not shown)  Inhibition (%) of tonic extension          25
1  O=C(Nc1cc(C(F)(F)F)cc(C(F)(F)F)c1)[C@H]1CCCC[C@H]1C(=O)O (relative stereo)  Inhibition (%) of tonic extension         100
2  O=C(Nc1cc(C(F)(F)F)cc(C(F)(F)F)c1)[C@H]1CC=CC[C@H]1C(=O)O (relative stereo)  Inhibition (%) of tonic extension         100

Continue with the compound presented below.
Inhibition (%) of tonic extension for maximal electroshock seizures in mice with input CC1CC[C@H](C(=O)O)[C@H](C(=O)Nc2cc(C(F)(F)F)cc(C(F)(F)F)c2)C1 (relative stereo) equals 50
